Answer each item with its documented pIC50.
biological target: DRB1*0101 (DR1) (Homo sapiens, UniProt P01903+P01911, A100R/D57E/F55L/F60I/F76Y/I96L/L162R/M171V/P40L/Q125E/R42F/V115G/Y59C); construct: used as sources of human HLA class II molecules; endogenous in cells; host or cells: LG2 (EBV-transformed homozygous B cell line); assay: Class II peptide-binding assay, DR1; settings: purified HLA DR1; read-out: DR1 nM (In IC50 Format);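 also: competition assay: unlabeled test peptides inhibit binding of a radiolabeled probe peptide to purified DR, with half-maximal inhibition taken as an approximate dissociation constant Kd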
Ends that are not written are not given here.
As a rule, pIC50 stands for the negative log10 of the concentration, concentration in M.

Note down pIC50 recorded for LMQYIKANSKFIGITE [Peptide 812.03] 7.88

Supply measured pIC50 of MQYIKANSKFIGITE [Peptide 812.05] in your reply. 7.19
